Every entry's value here was drawn from paper doi:10.1101/2025.09.30.679521v1.

Reported logD values follow for various compounds
- protocol-text: physchem
// no unit string in output, number only

Study these solved cases before continuing.
# compound-string, logD
records = [
    ("C#Cc1cn([C@@H]2O[C@H](CSc3nc4ccccc4s3)[C@@H](O)[C@H]2O)c2ncnc(N)c12", 2),
    ("Nc1ncnn2c([C@@H]3O[C@H](CNS(=O)(=O)c4ccc5ccccc5c4)[C@@H](O)[C@H]3O)ccc12", 1.6),
    ("Nc1ncnc2c1ccn2[C@@H]1O[C@H](CSc2nc3ccccc3s2)[C@@H](O)[C@H]1O", 1.6),
    ("CCc1cn([C@@H]2O[C@H](CSc3nc4ccccc4s3)[C@@H](O)[C@H]2O)c2ncnc(N)c12", 2.1),
]

Please look at the following compound next.
Incoming: # get_value(readout='logD', item= `Nc1ncnc2c1ccn2[C@@H]1C[C@H](CSc2nc3ccccc3s2)[C@@H](O)[C@H]1O` )
Outgoing: 1.8

----------
- protocol-text: in vitro
- Parameters: mouse liver microsomal stability
- conditions-used: liver microsomes; Mouse liver microsomes; read-out: Mouse liver Mic T1/2 / min
Reported half-life values follow for various compounds

Study these solved cases before continuing.
# compound, result
measured = [
    ("Nc1ncnc2c1ncn2[C@@H]1O[C@H](CSc2ccn3cncc3c2)[C@@H](O)[C@H]1O [compound 17]", "11.1 min"),
    ("Cc1ccc2nc(SC[C@H]3O[C@@H](n4cnc5c(N)ncnc54)[C@H](O)[C@@H]3O)sc2c1 [compound 2]", "> 30 min"),
    ("Nc1ncnn2c([C@@H]3O[C@H](CCc4nc5ccccc5s4)[C@@H](O)[C@H]3O)ccc12 [compound 39]", "> 30 min"),
    ("Nc1ncnc2c1ncn2[C@@H]1O[C@H](CSc2nccs2)[C@@H](O)[C@H]1O [compound 11]", "> 30 min"),
]

Incoming: # get_value(readout='half-life', item= Nc1ncnc2c1ccn2[C@@H]1C[C@H](CSc2nc3ccccc3s2)[C@@H](O)[C@H]1O [compound 28] )
Outgoing: > 30 min

Incoming: # get_value(readout='half-life', item= CNc1ncnc2c1ncn2[C@@H]1O[C@H](CSc2nc3ccccc3s2)[C@@H](O)[C@H]1O [compound 18] )
Outgoing: 19.7 min

Incoming: # get_value(readout='half-life', item= Nc1ncnn2c([C@@H]3O[C@H](CSc4ccc5ccccc5n4)[C@@H](O)[C@H]3O)ccc12 [compound 38] )
Outgoing: > 30 min

----------
Reported IC50 values follow for various molecules
- test-system: SARS-CoV-2 nsp14 (Severe acute respiratory syndrome coronavirus 2)
- Construct: gene rep
- protocol-text: RapidFire MS methyltransferase assay
- Format: biochemical
- conditions-used: read-out: IC50
- From the text: RapidFire MS methyltransferase assay on SARS-CoV-2 nsp14
Your answer should be a plain number; it is taken to be in nM.

# compound-string, test-system, measure, number
records = [
    ("Nc1ncnc2c1ncn2[C@@H]1O[C@H](CSc2nc3ccccc3[nH]2)[C@@H](O)[C@H]1O", "SARS-CoV-2 nsp14 (Severe acute respiratory syndrome coronavirus 2)", "IC50", 590),
    ("Nc1ncnc2c1ncn2[C@@H]1O[C@H](CNS(=O)(=O)c2ccc3ccccc3c2)[C@@H](O)[C@H]1O", "SARS-CoV-2 nsp14 (Severe acute respiratory syndrome coronavirus 2)", "IC50", 130),
]

Please look at the following molecule next.
Incoming: # get_value(readout='IC50', item= `Nc1ncnc2c1ncn2[C@@H]1O[C@H](CSc2nc3ccccc3s2)[C@@H](O)[C@H]1O` )
Outgoing: 420
